- Test system: HS729
- assay remarks: relative viability vs DMSO control (72 h) (fraction); higher = more viable cells
- measurement context: 0.04115 µM
For each entry below, report its relative viability value.
API doc: respond with a numeric literal and nothing else, no unit.

Input: Please look at O=C(Cc1ccc(-c2ccc(OCCN3CCOCC3)cc2)cn1)NCc1ccccc1 and tell me its recorded relative viability on HS729.
Output: 0.792

Input: Give measured relative viability for C=CC(=O)N1CCC[C@@H](n2nc(-c3ccc(Oc4ccccc4)cc3)c3c(N)ncnc32)C1 (HS729).
Output: 0.927

Input: Look up and report measured relative viability (HS729) for the following molecule: Cc1nc(-c2cn3c(n2)-c2ccc(-c4cnn(C(C)(C)C(N)=O)c4)cc2OCC3)n(C(C)C)n1
Output: 0.756

Input: For HS729, give the measured relative viability of the entry CC[C@H](Nc1ncnc2[nH]cnc12)c1nc2cccc(F)c2c(=O)n1-c1ccccc1
Output: 0.987

Input: Consider the molecule CCCS(=O)(=O)Nc1ccc(F)c(C(=O)c2c[nH]c3ncc(-c4ccc(Cl)cc4)cc23)c1F tested on HS729; state its relative viability.
Output: 0.915

Input: Give relative viability only, for Cc1ccc(NC(=O)c2ccc(CN3CCN(C)CC3)cc2)cc1Nc1nc(-c2cccnc2)cs1 , using HS729 data.
Output: 1.04

Input: State measured relative viability of the molecule CC(C)(C)c1cc(NC(=O)Nc2ccc(-c3cn4c(n3)sc3cc(OCCN5CCOCC5)ccc34)cc2)no1 with HS729.
Output: 0.953
